Measured Binding AUC of individual entries
measuredTarget: T1, recombinant SARS-CoV-2 Spike RBD domain, BQ.1.1 variant (SARS-CoV-2)
T1 construct: also called RBD BQ.1.1. variant
assayDetails: ELISA on coated RBD
readoutKind: Binding AUC

- binder: "SPK002M C2 antibody (antibody, human IgG1, kappa, V domains shown) VH: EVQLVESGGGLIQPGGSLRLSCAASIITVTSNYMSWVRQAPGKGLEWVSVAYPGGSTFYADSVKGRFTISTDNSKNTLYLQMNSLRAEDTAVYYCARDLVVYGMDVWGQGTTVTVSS VL: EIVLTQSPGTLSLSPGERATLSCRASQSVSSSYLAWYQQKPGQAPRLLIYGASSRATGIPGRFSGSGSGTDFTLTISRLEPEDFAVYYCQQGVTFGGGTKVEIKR"
  observed: 31
- binder: "SPK002M C1 antibody (antibody, human IgG1, kappa, V domains shown) VH: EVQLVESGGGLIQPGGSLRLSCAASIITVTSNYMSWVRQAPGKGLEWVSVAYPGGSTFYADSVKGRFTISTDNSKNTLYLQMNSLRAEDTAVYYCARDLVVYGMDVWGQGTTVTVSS VL: EIVLTQSPGTLSLSPGERATLSCRASQSVSDSYLAWYQQKPGQAPRLLIYGASSRATGIPGRFSGSGSGTDFTLTISRLEPEDFAVYYCQYGVTFGGGTKVEIKR"
  observed: 31
